B1: HESX1 (parent)
chain: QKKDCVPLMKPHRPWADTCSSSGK

- Variants of: B1
- test.details: protein stability index of a GFP-peptide fusion (GPS, HEK-293T) (PSI 1-6); higher = more stable;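 also: lentivirally expressed fusions sorted by FACS into six bins by GFP to DsRed ratio, PSI derived from sequencing read proportions per bin multiplied by bin number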
- condition.context: c terminus: a fixed tail appended
This section presents variants with their documented protein stability index values.
Hey, just send me the number, nothing else.

- mutation.name: "D17Y"
  protein stability index: 3.17

Ask: Record request: protein stability index value, item `L8K`
Reply: 3.73

Ask: Record request: protein stability index value, item `P11E`
Reply: 3.1
